# tested.on: recombinant human SOS1 polypeptide (amino acids 560-1049) (Homo sapiens, UniProt Q07889)
# Construct: corresponding to amino acids 560-1049, expressed in E. Coli; made in house; host or cells: E. coli
# Sequence (Q07889 560-1049): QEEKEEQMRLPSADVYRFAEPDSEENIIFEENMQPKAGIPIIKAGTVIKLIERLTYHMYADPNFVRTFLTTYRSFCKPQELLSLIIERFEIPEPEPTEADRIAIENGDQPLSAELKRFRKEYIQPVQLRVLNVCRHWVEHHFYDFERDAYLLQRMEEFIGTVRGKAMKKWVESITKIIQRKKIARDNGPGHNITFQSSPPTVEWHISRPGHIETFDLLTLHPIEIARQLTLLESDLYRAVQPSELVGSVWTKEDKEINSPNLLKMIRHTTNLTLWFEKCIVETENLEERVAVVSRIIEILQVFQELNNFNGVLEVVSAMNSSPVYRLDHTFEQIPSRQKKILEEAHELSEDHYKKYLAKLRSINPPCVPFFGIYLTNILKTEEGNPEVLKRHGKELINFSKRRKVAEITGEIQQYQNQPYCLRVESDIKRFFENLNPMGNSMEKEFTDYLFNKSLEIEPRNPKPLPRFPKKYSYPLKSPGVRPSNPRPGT
# method: HTRF displacement assay: inhibition of labeled tracer binding to SOS1
# recorded.conditions: Table A1, Morrison equation for competitive binding
Structures can show the parent of a compound that is named as a salt.
outcome.measure: Ki (nM)
Report only the number, with the unit nM understood.

Solved entries (count: 5):
Cc1c(C#N)cccc1[C@@H](C)Nc1nnc(C)c2cc(F)c(-c3ccc(=O)n(C)c3)cc12	12.5
Cc1c(C#N)cccc1[C@@H](C)Nc1nnc(C)c2c(C)nc(N3CCOCC3)cc12	2.5
Cc1c(C#N)cccc1[C@@H](C)Nc1nnc(C)c2c(C)nc(N3C[C@H]4C[C@@H]3CN4C)cc12	2.93
Cc1c(C#N)cccc1[C@@H](C)Nc1nnc(C)c2cc(F)c(N(C)C)cc12	3.97
Cc1c(C#N)cccc1[C@@H](C)Nc1nnc(C)c2cc(Cl)c(N(C)[C@H]3CCN(C)C3)cc12	1.47

Task item: Item `Cc1c(C#N)cccc1[C@@H](C)Nc1nnc(C=O)c2cnc(N3CCOCC3)cc12` has what recorded Ki?
Reply: 49.7

Task item: Item `Cc1c(C#N)cccc1[C@@H](C)Nc1nnc(C)c2cc(Cl)c(N3CCC34CN(C)C4)cc12` has what recorded Ki?
Reply: 1.1

Task item: Item `Cc1c(C#N)cccc1[C@@H](C)Nc1nnc(C)c2c(C)nc(N3CCN(C)C(C)(C)C3)cc12` has what recorded Ki?
Reply: 0.892

Task item: Item Cc1c(C#N)cccc1[C@@H](C)Nc1nnc(C)c2cnc(OCCOCCOc3cccc4c3C(=O)N(C3CCC(=O)NC3=O)C4=O)cc12 (some centres unmarked) has what recorded Ki?
Reply: 427

Task item: Item Cc1c(C#N)cccc1[C@@H](C)Nc1nnc(C)c2cnc(OCCOCCN3C(=O)CCC(N4C(=O)c5cccc(O)c5C4=O)C3=O)cc12 (some centres unmarked) has what recorded Ki?
Reply: 865

Task item: Item `Cc1c(C#N)cccc1[C@@H](C)Nc1nnc(C)c2cc(F)c(N(C)[C@H]3CCN(C)C3)cc12` has what recorded Ki?
Reply: 0.714

Task item: Item `Cc1nnc(N[C@H](C)c2cccc(C(F)F)c2F)c2cc(N3CCC34CN(C)C4)c(F)cc12` has what recorded Ki?
Reply: 0.416

Task item: Item `Cc1c(C#N)cccc1[C@@H](C)Nc1nnc(C)c2cc(F)c(N(C)[C@@H]3CCN(C)C3)cc12` has what recorded Ki?
Reply: 1.1

Task item: Item `Cc1c(C#N)cccc1[C@@H](C)Nc1nnc(C)c2cnc(N3CCc4c(cnn4C)C3)cc12` has what recorded Ki?
Reply: 1.1

Task item: Item `COC1(c2cc3c(N[C@H](C)c4cccc(C#N)c4C)nnc(C)c3cn2)CCN(C(C)=O)CC1` has what recorded Ki?
Reply: 17.6

Task item: Item `COC1(c2cc3c(N[C@H](C)c4cccc(C#N)c4C)nnc(C)c3cc2F)CCN(C)CC1` has what recorded Ki?
Reply: 16.6

Task item: Item `Cc1c(Br)cccc1[C@@H](C)Nc1nnc(C)c2cc(F)c(N3CCC34CN(C)C4)cc12` has what recorded Ki?
Reply: 0.262

Task item: Item Cc1c(C#N)cccc1[C@@H](C)Nc1nnc(C)c2cc(F)c(N3CCC3)cc12 [Example P-223, formic acid salt] has what recorded Ki?
Reply: 9.3

Task item: Item `CC(=O)N1CC2(CCN2c2cc3c(N[C@H](C)c4cccc(C#N)c4C)nnc(C)c3cn2)C1` has what recorded Ki?
Reply: 2.23

Task item: Item `Cc1c(C#N)cccc1[C@@H](C)Nc1nnc(C)c2cnc(N3CCc4ncn(C)c4C3)cc12` has what recorded Ki?
Reply: 1.17

Task item: Item Cc1c(C#N)cccc1[C@@H](C)Nc1nnc(C)c2cnc(N3CCC34COC4)cc12 [Example P-231, formic acid salt] has what recorded Ki?
Reply: 3.34

Task item: Item `Cc1c(C#N)cccc1[C@@H](C)Nc1nnc(C)c2cnc(N3CCn4cnnc4C3)cc12` has what recorded Ki?
Reply: 2.17

Task item: Item `Cc1c(C#N)cccc1[C@@H](C)Nc1nnc(C)c2cnc(-c3ccc(=O)n(C)c3)cc12` has what recorded Ki?
Reply: 43.5

Task item: Item Cc1c(C#N)cccc1[C@@H](C)Nc1nnc(C)c2cc(Cl)c(N(C)C)cc12 [Example P-195, formic acid salt] has what recorded Ki?
Reply: 154

Task item: Item `COC1CCN(c2cc3c(N[C@H](C)c4cccc(C#N)c4C)nnc(C)c3cn2)CC1` has what recorded Ki?
Reply: 1.12

Task item: Item `Cc1nnc(N[C@H](C)c2cccc(C(C)(F)F)c2F)c2cc(-c3ccc(=O)n(C)c3)c(F)cc12` has what recorded Ki?
Reply: 8.31
